assay: gradient 5% acetonitrile 3 min, to 50% in 2 min, to 85% in 15 min, held 3 min, 100 µL/min; details: column: Zorbax Extend-C18 2.1 x 50 mm; eluents: water / acetonitrile, 0.1% formic acid
endpointName: RP-LC retention time

**Query** Entry `COc1cccc(CNC(=O)C2(c3ccc(NC(=O)C(C)C)cc3)CCCCC2)c1` has what RP-LC retention time?
**Result** 950 s

**Query** Give its RP-LC retention time value. Item: CCn1c(C(=O)N2CCCC(C(=O)N3CCN(c4ccccc4)CC3)C2)cc2sccc21 (stereo not drawn)
**Result** 970 s

**Query** If you can, please state the reported RP-LC retention time value of `Cn1cc(C(=O)N2CCOCC2)c2cccnc21` .
**Result** 601 s

**Query** Entry `O=c1c2cc(-c3cccs3)nn2cnn1Cc1nc(-c2ccccc2Cl)no1` has what RP-LC retention time?
**Result** 1040 s

**Query** What measured RP-LC retention time goes with `CCC(=O)N1CCc2cc(C)c(S(=O)(=O)NC3CC3)cc21` ?
**Result** 767 s

**Query** Please give the measured RP-LC retention time for this compound: `O=C(Nc1nnc(Cc2ccc3c(c2)OCCO3)o1)c1sc2ccccc2c1Cl`
**Result** 950 s

**Query** // returns reported RP-LC retention time for input CC(C)CNC(=O)N1CCCC(c2nc(C(C)C)no2)CCNC(=O)CC1 (stereo not drawn)
**Result** 679 s

**Query** Bench note: what RP-LC retention time did `O=C(CCN1CCN(CCO)CC1)N1c2ccccc2Sc2ccc(C(F)(F)F)cc21` show?
**Result** 673 s

**Query** Return reported RP-LC retention time; argument: `Cc1ccccc1N1CCN(C(=O)c2ccc(CN3CCN(C(C)C)C(=O)C3=O)cc2)CC1`
**Result** 811 s

**Query** Suppose we examine the compound `CCOC(=O)c1nc(N(CC)c2ccccc2)c2ccccc2n1` ; what RP-LC retention time value has been reported?
**Result** 769 s

**Query** Recorded RP-LC retention time of Cc1ccc(CNC(=O)C2(C)CN(S(C)(=O)=O)CC(=O)N2c2cc(C)cc(C)c2)cc1 (stereo not drawn) , please.
**Result** 860 s

**Query** Can you share its RP-LC retention time? I mean this compound: `CCc1ccc(NC(=O)NCCc2cn(CC(C)C)c3ncccc23)cc1`
**Result** 919 s

**Query** Any idea what its RP-LC retention time is? The compound is `COc1ccc(OC)c(NC(=O)N2CC=C(c3cn(C)c4ncccc34)CC2)c1`
**Result** 882 s

**Query** For the compound shown here, Cc1ccc(C)c(NC(=O)C2CCCN(c3nnc(C)c4c(C)n(-c5ccccc5)nc34)C2)c1 (stereo not drawn) , give the reported RP-LC retention time.
**Result** 776 s

**Query** Consider the compound shown here: `CCN1C(=O)c2cccnc2Sc2cc(NC(=O)C(C)(C)C)ccc21` What is its recorded RP-LC retention time?
**Result** 795 s

**Query** Which measured RP-LC retention time value corresponds to O=S1(=O)CCC(Nc2ncnc3c2cnn3-c2ccc(Cl)c(Cl)c2)C1 (stereo not drawn) ?
**Result** 903 s

**Query** Can you share its RP-LC retention time? I mean this compound: Cc1ccc(N2C(=O)C3N=NN(Cc4nc(-c5cccc(C(F)(F)F)c5)no4)C3C2=O)cc1Cl (stereo not drawn)
**Result** 1180 s

**Query** Given the entry `O=C(C1=NN(Cc2ccccc2)c2ccccc2S1(=O)=O)N1CCCCCC1` , report its measured RP-LC retention time.
**Result** 974 s

**Query** Which measured RP-LC retention time value corresponds to `Cc1ccn2c(NC(=O)c3cccc(C(F)(F)F)c3)c(-c3ccc(F)cc3)nc2c1` ?
**Result** 752 s

**Query** Quick one: RP-LC retention time for `CC(C)Cn1cc(S(=O)(=O)Nc2cc(F)ccc2Cl)c2cccnc21` ?
**Result** 1020 s

**Query** // lookup RP-LC retention time for CCOc1cc2c(cc1OCC)C1C(C(=O)N3CCOCC3)c3ccccc3C(=O)N1CC2 (stereo not drawn)
**Result** 744 s

**Query** Need RP-LC retention time of `CCc1nc(-c2csc(S(=O)(=O)N3CCC(C(=O)Nc4ccc(F)cc4C)CC3)c2)no1` , thanks.
**Result** 963 s

**Query** Returns the measured RP-LC retention time for the input compound. Input: `COc1ccc(OC)c(-c2cn3ccn(-c4cccc(Cl)c4)c(=O)c3n2)c1`
**Result** 887 s

**Query** Any idea what RP-LC retention time was measured for Cc1cc(C)cc(NC(=O)C2CC(=O)N(CCc3c[nH]c4ccc(F)cc34)C2)c1 (stereo not drawn) ?
**Result** 889 s

**Query** Sample Cc1cc(C)n(Cc2c(C(=O)NCC3Cn4cccc4C(=O)N3C)noc2C)n1 (stereo not drawn) — what was its RP-LC retention time?
**Result** 688 s

**Query** Consider the compound shown here: `O=C(c1ccc2c(c1)nnn2CCN1CCOCC1)N1CCN(c2ccccc2)CC1` What is its recorded RP-LC retention time?
**Result** 616 s

**Query** // lookup RP-LC retention time for `COc1ccc(CNC(=O)Cn2c(=O)c3cc(-c4cccs4)nn3c3ncccc32)cc1`
**Result** 816 s

**Query** Given the compound `CC(C)n1c(=O)c2ccccc2n(Cc2nc(-c3cccc(C(F)(F)F)c3)no2)c1=O` , what is its reported RP-LC retention time?
**Result** 1230 s

**Query** Requested read-out: RP-LC retention time. Entry: `CN1CCCc2cc(CCNC(=O)c3c(F)cccc3F)ccc21`
**Result** 614 s

**Query** Which RP-LC retention time is listed for `CCOC(=O)C(=O)Nc1c(C(=O)Nc2cccc(Cl)c2)oc2ccccc12` ?
**Result** 1090 s

**Query** Quick one: RP-LC retention time of `O=C(C1CCN(c2cnn(Cc3ccccc3)c(=O)c2)CC1)N1CCCCC1` ?
**Result** 761 s

**Query** Requested field: RP-LC retention time. Item: COc1ccccc1CNC(=O)C1CCCN(C(=O)c2cc3sccc3n2C)C1 (stereo not drawn)
**Result** 852 s

**Query** Bench note: what RP-LC retention time did O=S(=O)(Cc1ccccc1)N1CCC(n2c(-c3ccco3)nc3cccnc32)C1 (stereo not drawn) show?
**Result** 802 s

**Query** What value of RP-LC retention time has been recorded for this entry: COc1cc(NC(=O)C2CCCN(c3nc(C)nc4oc(C)c(C)c34)C2)cc(OC)c1 (stereo not drawn)
**Result** 915 s

**Query** Can you look up the measured RP-LC retention time of `CN1CCn2cc(S(=O)(=O)Nc3ccc(C#N)cc3)cc2C1=O` for me?
**Result** 662 s

**Query** // RP-LC retention time lookup, key: O=C(NC(Cc1ccccc1)c1nnc(N2CCCC2)o1)c1ccco1 (stereo not drawn)
**Result** 713 s

**Query** Using the record for Cc1ccc(NC(=O)CN2CCc3ccccc3C2C(=O)N2CCCCC2)cc1C (stereo not drawn) , report its RP-LC retention time.
**Result** 900 s

**Query** Please give the measured RP-LC retention time for this compound: `CCOc1ccc(S(=O)(=O)N2CCN(c3cnn4c(C)nnc4c3)CC2)cc1`
**Result** 714 s
